Below, each of the binders is paired with its reported pKd value.
Target: T1, ActRIIB-Fc homodimer (UniProt Q13705 19-137)
T1 construct: extracellular domain; also called ActRIIB homodimer
T1 sequence (looked up): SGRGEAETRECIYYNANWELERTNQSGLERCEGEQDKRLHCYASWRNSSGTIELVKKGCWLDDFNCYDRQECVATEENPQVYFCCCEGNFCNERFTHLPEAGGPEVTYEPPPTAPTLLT
Test: Biacore SPR
pKd: −log10 of the molar value.

binder	pKd
GDF11 (ligand, UniProt O95390 299-407, looked up, also called BMP11) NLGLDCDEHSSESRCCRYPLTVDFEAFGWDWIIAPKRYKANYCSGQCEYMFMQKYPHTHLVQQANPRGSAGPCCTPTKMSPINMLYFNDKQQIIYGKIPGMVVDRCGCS	11.70
BMP9 (ligand, UniProt Q9UK05 320-429, looked up, also called GDF2) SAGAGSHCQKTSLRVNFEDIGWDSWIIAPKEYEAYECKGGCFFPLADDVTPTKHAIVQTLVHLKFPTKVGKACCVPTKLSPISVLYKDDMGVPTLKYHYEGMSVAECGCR	10.11
activin A (ligand, UniProt P08476 311-426, looked up) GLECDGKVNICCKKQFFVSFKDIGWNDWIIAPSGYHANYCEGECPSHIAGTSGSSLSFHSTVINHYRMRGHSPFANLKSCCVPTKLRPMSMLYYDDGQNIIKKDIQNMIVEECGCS	10.72
GDF3 (ligand, UniProt Q9NR23 251-364, looked up) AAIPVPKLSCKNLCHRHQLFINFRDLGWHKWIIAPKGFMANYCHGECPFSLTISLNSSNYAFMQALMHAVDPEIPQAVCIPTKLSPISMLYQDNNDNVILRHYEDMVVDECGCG	8.82
BMP10 (ligand, UniProt O95393 317-424, looked up) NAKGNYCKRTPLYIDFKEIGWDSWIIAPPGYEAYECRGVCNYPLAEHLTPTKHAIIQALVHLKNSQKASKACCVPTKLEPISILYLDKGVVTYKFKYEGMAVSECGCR	10.96
activin B (ligand, UniProt P09529 293-407, looked up) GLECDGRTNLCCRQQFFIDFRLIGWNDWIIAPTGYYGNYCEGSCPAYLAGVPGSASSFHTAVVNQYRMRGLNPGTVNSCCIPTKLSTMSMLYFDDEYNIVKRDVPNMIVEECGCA	10.70
